Just for reference, patent US10420845B2 is where these values come from.

# Tested on: SF-295
# Experimental Protocol: tumor cell-growth inhibition assay, SF-295 cells
# Assay type: cell-based
# Run Parameters: Homo sapiens; cell line SF-295
pIC50: −log10 of the molar value.
Property Name: pIC50

[
  {
    "Compound": "COc1cc(Nc2c(C#N)cnc3cc(OCCCN4CCN(C)CC4)c(OC)cc23)c(Cl)cc1Cl [Bosutinib, bosutinib, reference compound]",
    "pIC50": 4.77
  },
  {
    "Compound": "COc1cc(Nc2c(C#N)c(C(F)(F)CCCC(C)=O)nc3cc(OCCCN4CCN(C)CC4)c(OC)cc23)c(Cl)cc1Cl",
    "pIC50": 4.77
  }
]
